Cited source for all entries: patent US20160060285A1

Known MIC of a selection of compounds
# Tested on: Fusarium graminearum B4-5A
# test.name: microbe, parasite or virus in culture
# Type: cell-based
# condition.details: F. graminearum B4-5A; RPMI 1640, 35° C., 48 hour
The reply should be a number in mg per L, with the unit left off.

Recorded MIC, per entry:
INSERT INTO assay_data (compound, experimental_endpoint, unit_name, observed_result) VALUES
  ('CCCCCCCCCCOC1C(CO)OC(OC2C(N)CC(N)C(OC3OC(CN)C(O)C(O)C3O)C2O)C(O)C1N (centres unmarked)', 'MIC', 'mg per L', 62.5),
  ('CCCCOCC1OC(OC2C(N)CC(N)C(OC3OC(CN)C(O)C(O)C3O)C2O)C(O)C(N)C1OCCCC (centres unmarked)', 'MIC', 'mg per L', 125),
  ('CCCCCCCOCC1OC(OC2C(N)CC(N)C(OC3OC(CN)C(O)C(O)C3O)C2O)C(O)C(N)C1OCCCCCCC (centres unmarked)', 'MIC', 'mg per L', 15.6),
  ('CCCCCCCOC1C(CO)OC(OC2C(N)CC(N)C(OC3OC(CN)C(O)C(O)C3O)C2O)C(O)C1N (centres unmarked)', 'MIC', 'mg per L', 125),
  ('CCCCCCCCCOC1C(CO)OC(OC2C(N)CC(N)C(OC3OC(CN)C(O)C(O)C3O)C2O)C(O)C1N (centres unmarked)', 'MIC', 'mg per L', 62.5),
  ('CCCCCCOCC1OC(OC2C(N)CC(N)C(OC3OC(CN)C(O)C(O)C3O)C2O)C(O)C(N)C1OCCCCCC (centres unmarked)', 'MIC', 'mg per L', 3.9);

**Query** Please give measured MIC of the following entry: CCCCCCCCCOCC1OC(OC2C(N)CC(N)C(OC3OC(CN)C(O)C(O)C3O)C2O)C(O)C(N)C1OCCCCCCCCC (centres unmarked)
**Result** 125
